Hey, just so you know, these numbers are from patent US20260007613A1.

# Tested on: female BALB/C mice
# procedureText: Live imaging in mice: protein expression of Fluc-mRNA delivered by LNP formulations
# Type: in vivo
# details: 24 h; comparator HHMA
Where average radiation intensity, times that of HHMA equals or exceeds 20 times, the correct label is y; where it does not, the label is n.

Previously resolved entries follow.
// inclusive: average radiation intensity, times that of HHMA at least 20 times? input: CCCCCCCCC(CCCCCCCC)COC(=O)CCCCCN(CCCCCC(=O)OCC(CCCCCCCC)CCCCCCCC)C[C@H](O)CN(CC)CCO [YK-312]
n

Dear colleague, could you confirm whether CCCCCCCCC(CCCCCCCC)OC(=O)CCCCCN(CCCCCC(=O)OC(CCCCCCCC)CCCCCCCC)C[C@H](O)CN(CCO)CCO [YK-318] has average radiation intensity, times that of HHMA at or above 20 times?
n

Quick check: does CCCCCCCCCCCOC(=O)CCCCCN(CCCC(=O)OCCCC(CCCCCCCCCC)CCCCCCCCCC)C[C@H](O)CN(CC)CCO [YK-310] have average radiation intensity, times that of HHMA greater than or equal to 20 times?
y

Pending compound:
Entry CCCCCCCCC(CCCCCCCC)COC(=O)CCCCCN(CCCCCC(=O)OCC(CCCCCCCC)CCCCCCCC)C[C@H](O)CN(C)CCO [YK-305] : is its average radiation intensity, times that of HHMA no less than 20 times?
y

---

# System: female BALB/C mice
# procedureText: Live imaging in mice: protein expression of Fluc-mRNA delivered by LNP formulations
# Type: in vivo
# details: 6 h; comparator ALC-0315
# Excerpt: In addition, the protein expression and duration of mRNA in mice delivered by the cationic lipid delivery carriers designed were also verified. […]
quantityKind: average radiation intensity, times that of ALC-0315 (times)
Give bare numbers, in times.

Give me average radiation intensity, times that of ALC-0315 for each of these compounds, listed below.
1. CCCCCCCCC(CCCCCCCC)OC(=O)CCCCCN(CCCCCC(=O)OC(CCCCCCCC)CCCCCCCC)C[C@H](O)CN(CCO)CCO
2. CCCCCCCCCCCOC(=O)CCCCCN(CCCC(=O)OCCCC(CCCCCCCCCC)CCCCCCCCCC)C[C@H](O)CN(CC)CCO
3. CCCCCCCCC(CCCCCCCC)COC(=O)CCCCCN(CCCCCC(=O)OCC(CCCCCCCC)CCCCCCCC)C[C@H](O)CN(C)CCO
4. CCCCCCC(CCCCCC)CCOC(=O)CCCCCCN(CCCCCCC(=O)OCCC(CCCCCC)CCCCCC)C[C@H](O)CN(CCO)CCO
5. CCCCCCCCC(CCCCCCCC)COC(=O)CCCCCN(CCCCCC(=O)OCC(CCCCCCCC)CCCCCCCC)C[C@H](O)CN(CC)CCO

[3.85, 10.56, 10.70, 9.53, 9.27]

---

Would you kindly list Cell survival rate (%) for each of these compounds?
# System: 293T cells
# procedureText: Cell survival rate determination (CCK-8)
# Type: cell-based
# details: LNP formulation of Fluc-mRNA, 24 hours, CCK-8
Give bare numbers, in %.

Worked set:
# input compound: CCCCCCCCC(CCCCCCCC)OC(=O)CCCCCCCN(CCCCCCCC(=O)OC(CCCCCCCC)CCCCCCCC)C[C@H](O)CN(CC)CCO [YK-314] ; wanted: its Cell survival rate (%)
67.88

Entry CCCCCCC(CCCCCC)CCOC(=O)CCCCCN(CCCCCC(=O)OCCC(CCCCCC)CCCCCC)C[C@H](O)CN(CCO)CCO [YK-317] : reported Cell survival rate (%) = ?
59.18

Consider the compound shown here: CCCCCCCCCCC(CCCCCCCCCC)CCCOC(=O)CCCN(CCCC(=O)OCCCC(CCCCCCCCCC)CCCCCCCCCC)C[C@H](O)CN(C)CCO [YK-307] What is its recorded Cell survival rate (%)?
61.14

Return reported Cell survival rate (%); argument: CCCCCCCCC(CCCCCCCC)COC(=O)CCCCCN(CCCCCC(=O)OCC(CCCCCCCC)CCCCCCCC)C[C@H](O)CN(CC)CCO [YK-312]
76.96

Quick batch: Cell survival rate (%) for everything below.
1. CCCCCCCCC(CCCCCCCC)OC(=O)CCCCCN(CCCCCC(=O)OC(CCCCCCCC)CCCCCCCC)C[C@H](O)CN(CC)CCO [YK-313]
2. CCCCCCCCC(CCCCCCCC)OC(=O)CCCCCCCN(CCCCCCCC(=O)OC(CCCCCCCC)CCCCCCCC)C[C@H](O)CN(CCO)CCO [YK-320]

1: 68.93; 2: 71.07
